Data credit: the supplement of paper PMC11246515

- measurementDescription: total protein half-life in vivo (active degradation + dilution); higher = more stable protein
- conditionSet: E. coli NCM3722 delta-hslV; growth: N-lim chemostat; doubling time 6 h
Answer NOT MET if total protein half-life in vivo is under 5 h, and MET if it is 5 h or more.

1) MDIVFIEQLSVITTIGVYDWEQTIEQKLVFDIEMAWDNRKAAKSDDVADCLSYADIAETVVSHVEGARFALVERVAEEVAELLLARFNSPWVRIKLSKPGAVARAANVGVIIERGNNLKENN [P0AC16]	MET
2) MFHRLWTLIRKELQSLLREPQTRAILILPVLIQVILFPFAATLEVTNATIAIYDEDNGEHSVELTQRFARASAFTHVLLLKSPQEIRPTIDTQKALLLVRFPADFSRKLDTFQTAPLQLILDGRNSNSAQIAANYLQQIVKNYQQELLEGKPKPNNSELVVRNWYNPNLDYKWFVVPSLIAMITTIGVMIVTSLSVAREREQGTLDQLLVSPLTTWQIFIGKAVPALIVATFQATIVLAIGIWAYQIPFAGSLALFYFTMVIYGLSLVGFGLLISSLCSTQQQAFIGVFVFMMPAILLSGYVSPVENMPVWLQNLTWINPIRHFTDITKQIYLKDASLDIVWNSLWPLLVITATTGSAAYAMFRRKVM [P0AFP9]	MET
3) MIKWPWKVQESAHQTALPWQEALSIPLLTCLTEQEQSKLVTLAERFLQQKRLVPLQGFELDSLRSCRIALLFCLPVLELGLEWLDGFHEVLIYPAPFVVDDEWEDDIGLVHNQRIVQSGQSWQQGPIVLNWLDIQDSFDASGFNLIIHEVAHKLDTRNGDRASGVPFIPLREVAGWEHDLHAAMNNIQEEIELVGENAASIDAYAASDPAECFAVLSEYFFSAPELFAPRFPSLWQRFCQFYQQDPLQRLHHANDTDSFSATNVH	NOT MET
4) MNYRIIPVTAFSQNCSLIWCEQTRLAALVDPGGDAEKIKQEVDDSGLTLMQILLTHGHLDHVGAAAELAQHYGVPVFGPEKEDEFWLQGLPAQSRMFGLEECQPLTPDRWLNEGDTISIGNVTLQVLHCPGHTPGHVVFFDDRAKLLISGDVIFKGGVGRSDFPRGDHNQLISSIKDKLLPLGDDVIFIPGHGPLSTLGYERLHNPFLQDEMPVW	NOT MET
5) MARARGRGRRDLKSEINIVPLLDVLLVLLLIFMATAPIITQSVEVDLPDATESQAVSSNDNPPVIVEVSGIGQYTVVVEKDRLERLPPEQVVAEVSSRFKANPKTVFLIGGAKDVPYDEIIKALNLLHSAGVKSVGLMTQPI [P0ABV6]	MET

Say whether `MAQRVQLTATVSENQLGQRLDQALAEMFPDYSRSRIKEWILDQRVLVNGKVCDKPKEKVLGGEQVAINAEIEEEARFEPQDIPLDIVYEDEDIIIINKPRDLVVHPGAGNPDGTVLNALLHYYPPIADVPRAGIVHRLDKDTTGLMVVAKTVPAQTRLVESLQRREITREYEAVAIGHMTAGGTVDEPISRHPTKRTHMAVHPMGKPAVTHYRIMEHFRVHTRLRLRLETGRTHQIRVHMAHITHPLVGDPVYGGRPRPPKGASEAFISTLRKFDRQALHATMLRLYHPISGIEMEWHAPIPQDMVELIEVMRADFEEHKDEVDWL` shows total protein half-life in vivo of 5 h or more.
MET
